- Target: Gal-4-PPAR (human PPAR LBD fused to GAL4 DNA-binding domain) (Homo sapiens (Human), UniProt P37231)
- Sequence (P37231 238-503): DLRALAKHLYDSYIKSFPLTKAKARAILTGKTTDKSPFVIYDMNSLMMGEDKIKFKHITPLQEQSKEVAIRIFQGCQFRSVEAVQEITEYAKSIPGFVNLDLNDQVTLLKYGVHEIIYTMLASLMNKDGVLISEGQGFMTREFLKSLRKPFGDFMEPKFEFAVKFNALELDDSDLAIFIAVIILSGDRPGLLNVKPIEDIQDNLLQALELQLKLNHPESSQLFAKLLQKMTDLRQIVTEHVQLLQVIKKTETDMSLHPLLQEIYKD
- Protocol description: GAL4-PPARG LBD / UAS-luciferase transactivation assay in HEK 293T cells
- Assay type: cell-based
- Experimental setup: GAL4 transactivation, HEK 293T cells; NA = not active; read-out: EC50 (nM) GAL4
Value kind: EC50 (nM)

Example entries and their recorded answers appear below.
>  <Compound>
Cc1c(C)n(Cc2ccc(-c3ccccc3C(=O)O)cc2)c2ccc(C(=O)NC(C)c3cccc(C4CC4)n3)cc12 (stereo not shown)

>  <EC50 / nM>
2

$$$$
>  <Compound>
Cc1c(C)n(Cc2ccc(-c3ccccc3C(=O)O)cc2)c2ccc(C(=O)N[C@@H](C)[C@H]3CCCN3C(=O)OCc3ccccc3)cc12

>  <EC50 / nM>
193

$$$$
>  <Compound>
Cc1c(C)n(Cc2ccc(-c3ccccc3C(=O)O)cc2)c2ccc(C(=O)N[C@@H](C)c3ccccc3Cl)cc12

>  <EC50 / nM>
152

$$$$
>  <Compound>
Cc1c(C)n(Cc2ccc(-c3ccccc3C(=O)O)cc2)c2ccc(C(=O)N[C@@H](C)c3cc(C(F)(F)F)ccc3F)cc12

>  <EC50 / nM>
156

$$$$

1: Cc1c(C)n(Cc2ccc(-c3ccccc3C(=O)O)cc2)c2ccc(C(=O)N[C@H](C)c3cc(C(F)(F)F)ccc3C(F)(F)F)cc12
2: Cc1c(C)n(Cc2ccc(-c3ccccc3C(=O)O)cc2)c2ccc(C(=O)N[C@@H](C)c3cccc(Cl)c3F)cc12
3: Cc1c(C)n(Cc2ccc(-c3ccccc3C(=O)O)cc2)c2ccc(C(=O)N[C@@H](C)c3ccccn3)cc12
Output the entries ranked by EC50 from maximum down to minimum. Reply: labels, ordered per the request.
2, 1, 3

1: Cc1c(C)n(Cc2ccc(-c3ccccc3C(=O)O)cc2)c2ccc(C(=O)N[C@@H](C)[C@@H]3CCCN3C(=O)OCc3ccccc3)cc12
2: Cc1c(C)n(Cc2ccc(-c3ccccc3C(=O)O)cc2)c2ccc(C(=O)N[C@@H](C)c3cccc(F)c3Cl)cc12
Among 1 and 2 , whose measured EC50 is the smaller figure? Please respond with the label that marks your chosen entry.
2
(2: 114 nM, 1: 417 nM)

From: patent US8957093B2
